molecular target: T1, recombinant human IL4Rα-his protein (in house made) (human, UniProt P24394 26-232, limits assumed); experiment: SPR (Biacore), antibody captured, IL4Rα-his flowed
T1 construct: also called Human IL4Ra-his
measured_quantity: Dissociation % (%)
Return type: number; implicit unit %.

Below: 2 binders and their reported Dissociation %.
binder	Dissociation % (%)
huC2C1A1A1-V12 (antibody, human IgG4 S228P, kappa, V domains shown, Humanized, human IgG4/kappa) VH: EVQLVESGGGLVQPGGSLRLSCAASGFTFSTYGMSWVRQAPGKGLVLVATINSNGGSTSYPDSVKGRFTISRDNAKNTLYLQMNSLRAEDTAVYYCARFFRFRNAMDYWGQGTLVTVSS VL: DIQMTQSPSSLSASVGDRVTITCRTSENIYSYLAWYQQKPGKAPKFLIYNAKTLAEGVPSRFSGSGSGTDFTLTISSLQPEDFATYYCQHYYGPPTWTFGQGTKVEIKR	-1.88
huC2C1A1A1-V1 (antibody, human IgG4 S228P, kappa, V domains shown, Humanized, human IgG4/kappa) VH: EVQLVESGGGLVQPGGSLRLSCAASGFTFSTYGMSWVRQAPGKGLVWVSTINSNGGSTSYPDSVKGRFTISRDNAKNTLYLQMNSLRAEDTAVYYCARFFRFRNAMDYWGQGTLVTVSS VL: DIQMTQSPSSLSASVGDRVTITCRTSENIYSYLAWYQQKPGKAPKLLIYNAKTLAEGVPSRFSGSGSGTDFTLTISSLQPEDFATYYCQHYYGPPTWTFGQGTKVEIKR	0.23

Now consider a different binder.
So for huC2C1A1A1-V5 (antibody, human IgG4 S228P, kappa, V domains shown, Humanized, human IgG4/kappa) VH: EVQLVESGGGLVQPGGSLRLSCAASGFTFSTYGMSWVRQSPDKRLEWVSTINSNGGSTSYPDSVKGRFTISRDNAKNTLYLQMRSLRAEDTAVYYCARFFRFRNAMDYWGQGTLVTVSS VL: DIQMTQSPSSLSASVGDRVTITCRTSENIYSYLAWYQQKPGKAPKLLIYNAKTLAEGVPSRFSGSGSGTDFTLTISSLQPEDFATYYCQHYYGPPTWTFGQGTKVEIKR , the logged Dissociation % turned out to be -2.28
